# credit: a melting point compilation (Tetko et al.; mined from patent text by program, amines drawn as free bases though some values may be those of a salt)

Measured melting point values are reported for all entries that follow.

These recorded examples may help you get a feel for the data.
>  <Compound>
CS(=O)(=O)c1ccc(/C=C2/C(=O)CCc3ccccc32)cc1

>  <Endpoint value>
152 to 153 °C

$$$$
>  <Compound>
O=C(Nc1ccc(Cc2ccc(O)c(O)c2)cc1)C1CSc2ccccc2C1=O (stereo not given)

>  <Endpoint value>
216 to 218 °C

$$$$
>  <Compound>
Cc1nc(-c2ccccc2N)[nH]c1-c1cccnc1

>  <Endpoint value>
221 to 222 °C

$$$$

Entry COc1ccc(/C=C/C=C/C(=O)Oc2ccc([N+](=O)[O-])cc2)cc1 , melting point reported as 176 to 177 °C

Lab note: measured melting point of CC1(C)N=C(c2ccccc2F)c2cc(N)ccc2-n2cnnc21 was 288 °C
